Biological target: T1, Biotin-huCGRPaSA (human, not fully specified; biotin (position not given))
T1 construct: exact construct ('aSA') not explained; also called Biotin CGRPaSA; full-length (1-37) CGRP
T1 peptide: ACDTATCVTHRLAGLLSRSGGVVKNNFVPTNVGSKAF
Test: ELISA, supernatant; relative to chimeric C245
Measured Relative binding activity, % values are reported for all entries that follow.
observationType: Relative binding activity, % (%)

{"binder": "hu167 (antibody, V domains shown, 3E5 HC-2/3E5 LC-1) VH: QVQLVQSGAEVKKPGASVKVSCKASGYTFTDYNMHWVRQAPGQRLEWMGYISPYNGGTAYNQKFKFRVTLTVDTSSSTAYMELSSLRSEDTAVYYCAREGLGGYWGQGTLVTVSS VL: DIVLTQSPDSLAVSLGERATINCKASQNIDYDGYTYLNWYQQKPGQPPKVLIYSIFNLESGVPDRFSGSGSGTDFTLTISSLQAEDVAVYYCQQSNEVPYTFGQGTKLEIK", "valueObserved": 101}
{"binder": "hu93 (antibody, V domains shown, 2A2 HC-1/1A2 LC2-2) VH: QVQLVQSGAEVKKPGASVKVSCKASGYTFTDYNMHWVRQAPGQRLEWMGYVYPYNGGSAYNQKFKSRVTLTVDTSSSTAYMELSSLRSEDTAVYYCAREGLGGYWGQGTLVTVSS VL: DIVLTQSPASLAVSPGQRATITCKASQNIDYDGYAYLNWYQQKPGQPPKVLIYSVFNLESGVPARFSGSGSGTDFTLTINPVEADDTANYYCQQSNEFPYTFGQGTKLEIK", "valueObserved": 45}
